Overview of recorded IC50 for various compounds
Measured On: human NaV 1.8 (Homo sapiens)
Protocol Text: E-VIPR Assay for Detecting and Measuring NaV Inhibition Properties
Assay type: cell-based
Protocol Conditions: HEK cells expressing a truncated form of human NaV 1.8; HS = human serum; read-out: EVIPR HS IC50

>>> reported_value("[2H]C([2H])([2H])Oc1cc(OC(F)(F)F)ccc1Oc1ccc(C(F)(F)F)cc1C(=O)Nc1ccnc(NC(=O)OC(C)(C)C)c1")
"≥ 1 µM"
>>> reported_value("COC(=O)c1cc(NC(=O)c2c(Oc3ccc(OC(F)(F)F)c(F)c3C)ccc(C(F)(F)F)c2F)c(C)cn1")
"< 0.1 µM"
>>> reported_value("COC(=O)c1cc(NC(=O)c2c(Oc3ccc(OC(F)(F)F)c(F)c3OC)ccc(C(F)(F)F)c2C)c(C2CC2)cn1")
"≥ 1 µM"
>>> reported_value("COC(=O)c1nccc(NC(=O)c2c(Oc3ccc(OC(F)(F)F)cc3OC)ccc(C(F)(F)F)c2F)c1C")
"≥ 1 µM"
>>> reported_value("COC(=O)c1cc(NC(=O)c2c(Oc3ccc(OC(F)(F)F)cc3Cl)ccc(C3CC3)c2C)c(C)cn1")
"≥ 1 µM"

**Query** What IC50 value was documented for this compound, [2H]C([2H])([2H])Oc1cc(OC(F)(F)F)ccc1Oc1ccc(C(F)(F)F)cc1C(=O)Nc1ccnc(C(=O)OC)c1 ?
**Result** 0.5 to 1 µM

**Query** Please report the recorded IC50 for COC(=O)c1nccc(NC(=O)c2c(Oc3ccc(OC(F)(F)F)cc3OC)ccc(C(F)(F)F)c2F)c1F .
**Result** 0.5 to 1 µM

---

Measured On: human NaV 1.8 (Homo sapiens, UniProt Q9Y5Y9)
Sequence (Q9Y5Y9 whole entry, looked up): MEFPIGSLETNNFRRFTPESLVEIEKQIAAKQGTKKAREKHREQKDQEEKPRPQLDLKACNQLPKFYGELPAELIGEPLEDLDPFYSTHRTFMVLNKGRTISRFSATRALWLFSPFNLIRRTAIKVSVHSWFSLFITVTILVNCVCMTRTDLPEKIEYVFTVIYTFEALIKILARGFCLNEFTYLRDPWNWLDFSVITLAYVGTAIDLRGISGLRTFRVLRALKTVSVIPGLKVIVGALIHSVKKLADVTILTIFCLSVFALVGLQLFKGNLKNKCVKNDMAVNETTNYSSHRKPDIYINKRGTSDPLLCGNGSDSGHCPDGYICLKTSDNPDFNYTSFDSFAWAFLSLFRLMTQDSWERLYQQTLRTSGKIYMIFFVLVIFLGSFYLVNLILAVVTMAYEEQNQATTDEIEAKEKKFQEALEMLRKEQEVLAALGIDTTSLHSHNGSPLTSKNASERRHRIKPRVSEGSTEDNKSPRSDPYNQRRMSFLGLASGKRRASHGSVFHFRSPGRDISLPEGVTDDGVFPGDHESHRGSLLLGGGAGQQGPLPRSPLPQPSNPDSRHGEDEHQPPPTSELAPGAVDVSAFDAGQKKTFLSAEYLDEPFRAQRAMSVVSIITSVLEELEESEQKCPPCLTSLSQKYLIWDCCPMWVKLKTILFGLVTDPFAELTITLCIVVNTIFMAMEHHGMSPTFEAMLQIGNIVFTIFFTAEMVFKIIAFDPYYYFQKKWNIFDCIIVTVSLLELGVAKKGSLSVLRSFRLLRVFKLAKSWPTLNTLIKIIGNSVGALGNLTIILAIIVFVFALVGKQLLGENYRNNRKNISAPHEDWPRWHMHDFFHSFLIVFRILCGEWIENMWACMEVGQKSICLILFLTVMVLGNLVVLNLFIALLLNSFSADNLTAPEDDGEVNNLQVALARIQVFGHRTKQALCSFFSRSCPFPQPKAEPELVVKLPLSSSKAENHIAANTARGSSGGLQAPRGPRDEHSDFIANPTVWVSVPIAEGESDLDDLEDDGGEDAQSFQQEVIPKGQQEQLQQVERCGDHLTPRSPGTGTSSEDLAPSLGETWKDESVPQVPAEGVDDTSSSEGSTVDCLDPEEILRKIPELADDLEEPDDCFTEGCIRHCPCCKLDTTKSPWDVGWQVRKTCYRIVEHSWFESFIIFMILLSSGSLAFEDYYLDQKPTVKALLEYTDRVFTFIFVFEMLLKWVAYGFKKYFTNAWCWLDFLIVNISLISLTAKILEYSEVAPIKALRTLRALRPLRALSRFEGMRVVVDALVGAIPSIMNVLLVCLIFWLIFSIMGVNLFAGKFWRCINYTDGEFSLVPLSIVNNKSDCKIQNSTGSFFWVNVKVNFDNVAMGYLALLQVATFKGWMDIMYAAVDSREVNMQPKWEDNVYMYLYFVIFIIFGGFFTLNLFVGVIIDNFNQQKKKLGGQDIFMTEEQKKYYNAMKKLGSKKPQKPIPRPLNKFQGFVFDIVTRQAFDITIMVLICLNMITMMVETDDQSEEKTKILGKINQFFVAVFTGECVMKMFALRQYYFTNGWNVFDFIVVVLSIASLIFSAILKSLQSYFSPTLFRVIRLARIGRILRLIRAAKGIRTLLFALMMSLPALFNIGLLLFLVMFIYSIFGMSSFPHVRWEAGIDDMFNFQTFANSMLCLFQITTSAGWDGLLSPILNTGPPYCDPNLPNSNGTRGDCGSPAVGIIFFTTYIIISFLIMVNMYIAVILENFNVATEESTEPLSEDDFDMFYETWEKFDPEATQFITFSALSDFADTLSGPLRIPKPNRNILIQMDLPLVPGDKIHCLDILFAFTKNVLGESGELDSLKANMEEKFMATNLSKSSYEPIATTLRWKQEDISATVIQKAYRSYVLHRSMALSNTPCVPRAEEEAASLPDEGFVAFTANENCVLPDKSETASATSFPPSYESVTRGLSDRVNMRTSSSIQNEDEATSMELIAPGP
Protocol Text: E-VIPR Assay for Detecting and Measuring NaV Inhibition Properties
Format: cell-based
Protocol Conditions: HEK cells expressing a truncated form of human NaV 1.8; HS = human serum; read-out: EVIPR HS IC50
pIC50: −log10 of the molar value.
# pIC50 values compiled below

>>> reported_value("COC(=O)c1cc(NC(=O)c2c(Oc3ccc(OC(F)(F)F)cc3OC)ccc(C(F)(F)F)c2F)c(C2CC2)cn1 [Compound 26]")
"≤ 6.00"
>>> reported_value("[2H]C([2H])([2H])Oc1cc(OC(F)(F)F)ccc1Oc1cc(C(F)(F)F)c(F)cc1C(=O)Nc1ccnc(C(=O)OC)c1 [Compound 6]")
"6.30 to 7.00"
>>> reported_value("COC(=O)c1nccc(NC(=O)c2c(Oc3ccc(OC(F)(F)F)c(F)c3OC)ccc(C(F)(F)F)c2F)c1C [Compound 34]")
"≤ 6.00"

Let's switch to this molecule now.
**Query** // lookup pIC50 | system=human NaV 1.8 (Homo sapiens, UniProt Q9Y5Y9) | key= COC(=O)c1ccc(NC(=O)c2c(Oc3ccc(OC(F)(F)F)c(F)c3OC)ccc(C(F)(F)F)c2F)cn1 [Compound 14]
**Result** 6.30 to 7.00

---

Measured On: human NaV 1.8 (Homo sapiens)
Protocol Text: E-VIPR Assay for Detecting and Measuring NaV Inhibition Properties
Format: cell-based
Protocol Conditions: HEK cells expressing a truncated form of human NaV 1.8; HS = human serum; read-out: EVIPR HS IC50
Measured Property: IC50

>>> reported_value("COC(=O)c1cc(NC(=O)c2c(Oc3ccc(OC(F)(F)F)c(F)c3Cl)ccc(C(F)(F)F)c2F)c(C)cn1 [Compound 20]")
"< 100 nM"
>>> reported_value("COC(=O)c1cc(NC(=O)c2c(Oc3ccc(OC(F)(F)F)cc3)ccc(C(F)(F)F)c2F)ccn1 [Compound 3]")
"100 to 500 nM"
>>> reported_value("[2H]C([2H])([2H])Oc1cc(OC(F)(F)F)ccc1Oc1cc(C(F)(F)F)c(F)cc1C(=O)Nc1ccnc(NC(=O)OC(C)(C)C)c1 [Compound 7]")
"≥ 1000 nM"
>>> reported_value("COC(=O)c1ccnc(NC(=O)c2c(Oc3ccc(OC(F)(F)F)c(F)c3OC)ccc(C(F)(F)F)c2C)c1 [Compound 24]")
"≥ 1000 nM"

**Query** Please give the measured IC50 for this molecule: COC(=O)c1ccnc(NC(=O)c2c(Oc3ccc(OC(F)(F)F)c(F)c3OC)ccc(C(F)(F)F)c2F)c1 [Compound 23]
**Result** 500 to 1000 nM

**Query** Entry under review: COC(=O)c1nccc(NC(=O)c2c(Oc3ccc(OC(F)(F)F)cc3OC)ccc(C(F)(F)F)c2C)c1C [Compound 33] . Reported IC50?
**Result** ≥ 1000 nM

**Query** Find the recorded IC50 belonging to COC(=O)c1ccc(NC(=O)c2c(Oc3ccc(OC(F)(F)F)cc3OC)ccc(C(F)(F)F)c2F)cn1 [Compound 15] and report it.
**Result** 100 to 500 nM

**Query** Any idea what its IC50 is? The molecule is COC(=O)c1cc(NC(=O)c2c(Oc3ccc(OC(F)(F)F)cc3OC)ccc(C(F)(F)F)c2O)ccn1 [Compound 25]
**Result** 100 to 500 nM
